Where do these numbers come from? They come from patent US9567339B2.

Target: BTK, recombinant human catalytic domain (aa 393-659) (Homo sapiens (Human), UniProt Q06187)
Sequence (Q06187 393-659): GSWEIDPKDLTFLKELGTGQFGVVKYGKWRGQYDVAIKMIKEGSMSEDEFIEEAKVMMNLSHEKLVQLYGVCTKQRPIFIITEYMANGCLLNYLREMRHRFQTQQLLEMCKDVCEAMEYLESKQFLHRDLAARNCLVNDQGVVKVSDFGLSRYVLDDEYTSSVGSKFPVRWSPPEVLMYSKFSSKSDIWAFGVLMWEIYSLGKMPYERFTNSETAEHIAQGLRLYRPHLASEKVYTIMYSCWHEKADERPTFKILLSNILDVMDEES
Experiment: In vitro BTK kinase activity measured by time-resolved fluorescence resonance energy transfer (trFRET)
Type: biochemical
Settings: trFRET, 0.001 mM ATP, biotin-TYR1 peptide substrate; read-out: Btk IC50
pIC50: −log10 of the molar value.
Listed compounds paired with reported pIC50

[[record]]
compound = "C=C(C(=O)Nc1cccc(-c2ccc(C(N)=O)c3[nH]ccc23)c1C)c1ccccc1"
reading = "6.00 to 7.00"


What pIC50 value was documented for this compound, "NC(=O)c1ccc(-c2ccnc(N)c2)c2cc[nH]c12" ?
5.00 to 6.00

What pIC50 value was documented for this compound, "C=CC(=O)Nc1cccc(-c2ccc(C(N)=O)c3[nH]c(CCO)cc23)c1" ?
> 7.00

What pIC50 value was documented for this compound, C=CC(=O)Nc1cccc(-c2ccc(C(N)=O)c3[nH]c(-c4ccnn4C4CCCCO4)cc23)c1C (centres unmarked) ?
> 7.00

What pIC50 value was documented for this compound, "Cc1c(NC2COC2)cccc1-c1ccc(C(N)=O)c2[nH]c(C3=CCN(S(C)(=O)=O)CC3)cc12" ?
> 7.00

What pIC50 value was documented for this compound, "C=CC(=O)Nc1cccc(-c2ccc(C(N)=O)c3[nH]c(-c4ccc(OC)cc4)cc23)c1C" ?
> 7.00

What pIC50 value was documented for this compound, "C=CC(=O)Nc1cccc(-c2ccc(C(N)=O)c3[nH]c(-c4ccc(F)cc4)cc23)c1C" ?
> 7.00

What pIC50 value was documented for this compound, "C=CC(=O)Nc1cccc(-c2ccc(C(N)=O)c3[nH]c(-c4cnn(CC(C)C)c4)cc23)c1C" ?
> 7.00

###

Listed compounds paired with reported IC50
Molecular target: BTK, recombinant human catalytic domain (aa 393-659) (Homo sapiens (Human))
Assay: In vitro BTK kinase activity measured by time-resolved fluorescence resonance energy transfer (trFRET)
Type: biochemical
Conditions: trFRET, 0.001 mM ATP, biotin-TYR1 peptide substrate; read-out: Btk IC50

Worked examples, 3 compounds total:
[[record]]
compound = "Cc1c(-c2ccc(C(N)=O)c3[nH]c(C4=CCN(S(C)(=O)=O)CC4)cc23)cccc1-n1cnc2ccccc2c1=O"
reading = "< 0.1 µM"

[[record]]
compound = "Cc1ccc2c(c1)C(=O)N(c1cccc(-c3ccc(C(N)=O)c4[nH]c(-c5cccnc5)cc34)c1C)C2"
reading = "< 0.1 µM"

[[record]]
compound = "Cc1c(NC(=O)c2ccc(C(C)(C)C)cc2)cccc1-c1ccc(C(N)=O)c2[nH]ccc12"
reading = "1 to 10 µM"


Let's switch to this compound now.
What IC50 appears in the records for this compound with BTK, recombinant human catalytic domain (aa 393-659) (Homo sapiens (Human))? "Cc1c(NC(=O)/C=C/c2cnn(C)c2)cccc1-c1ccc(C(N)=O)c2[nH]ccc12"
0.1 to 1 µM

###

Biological target: BTK, recombinant human catalytic domain (aa 393-659) (Homo sapiens (Human), UniProt Q06187)
Experiment: In vitro BTK kinase activity measured by time-resolved fluorescence resonance energy transfer (trFRET)
Assay type: biochemical
Conditions: read-out: Btk IC50
pIC50: −log10 of the molar value.
Measured Property: pIC50

[[record]]
compound = "C=CC(=O)Nc1cc(C#N)cc(-c2ccc(C(N)=O)c3[nH]ccc23)c1"
measured_property = "pIC50"
reading = "6.00 to 7.00"

[[record]]
compound = "C=CC(=O)Nc1cccc(-c2ccc(C(N)=O)c3[nH]ccc23)c1C#N"
measured_property = "pIC50"
reading = "6.00 to 7.00"

[[record]]
compound = "C=CC(=O)N1CC[C@H](c2ccc(C(N)=O)c3[nH]c(-c4cnn(C)c4)cc23)C1"
measured_property = "pIC50"
reading = "> 7.00"


What pIC50 value was documented for this compound, "C=CC(=O)N1C[C@H](CO)C[C@@H](c2ccc(C(N)=O)c3[nH]ccc23)C1" ?
6.00 to 7.00

What pIC50 value was documented for this compound, "C/C=C/C(=O)Nc1cccc(-c2ccc(C(N)=O)c3[nH]c(C4=CCN(S(C)(=O)=O)CC4)cc23)c1C" ?
> 7.00

What pIC50 value was documented for this compound, "C/C=C(/C)C(=O)Nc1cccc(-c2ccc(C(N)=O)c3[nH]c(C4=CCN(S(C)(=O)=O)CC4)cc23)c1C" ?
> 7.00

###

Target: BTK, recombinant human catalytic domain (aa 393-659) (Homo sapiens (Human), UniProt Q06187)
Test: In vitro BTK kinase activity measured by time-resolved fluorescence resonance energy transfer (trFRET)
Assay type: biochemical
Conditions: read-out: Btk IC50
pIC50: −log10 of the molar value.
Measured Property: pIC50

Worked examples, 5 molecules total:
[[record]]
molecule = "C=CC(=O)N1CCC[C@@H](c2ccc(C(N)=O)c3[nH]c(-c4cnn(C)c4)cc23)C1"
reading = "> 7.00"

[[record]]
molecule = "C=CC(=O)Nc1cc(-c2ccc(C(N)=O)c3[nH]ccc23)c(F)cc1F"
reading = "> 7.00"

[[record]]
molecule = "C=CC(=O)N1C[C@H]2CN(c3ccc(C(N)=O)c4[nH]ccc34)C[C@H]21"
reading = "6.00 to 7.00"

[[record]]
molecule = "Cc1c(NC(=O)COc2ccc(F)cc2)cccc1-c1ccc(C(N)=O)c2[nH]c(C3=CCN(S(C)(=O)=O)CC3)cc12"
reading = "> 7.00"

[[record]]
molecule = "Cc1c(NC(=O)C(C)Cl)cccc1-c1ccc(C(N)=O)c2[nH]c(C3=CCN(S(C)(=O)=O)CC3)cc12 (centres unmarked)"
reading = "> 7.00"


What pIC50 value was documented for this molecule, "Cc1c(NC(=O)c2ccc(C(F)F)cc2)cccc1-c1ccc(C(N)=O)c2[nH]ccc12" ?
6.00 to 7.00

What pIC50 value was documented for this molecule, "C=CC(=O)N1CC(N(C)c2ccc(C(N)=O)c3[nH]c(C4CCS(=O)(=O)CC4)cc23)C1" ?
> 7.00

What pIC50 value was documented for this molecule, "Cc1c(NC(=O)C2CCCCC2)cccc1-c1ccc(C(N)=O)c2[nH]c(C3=CCN(S(C)(=O)=O)CC3)cc12" ?
> 7.00

What pIC50 value was documented for this molecule, "CS(=O)(=O)N1CC=C(c2cc3c(N4CCC[C@@H](N5CCn6ccnc6C5=O)C4)ccc(C(N)=O)c3[nH]2)CC1" ?
> 7.00

What pIC50 value was documented for this molecule, "NC(=O)c1ccc(N2CCC[C@@H](n3cnc4ccc(F)cc4c3=O)C2)c2cc(-c3ccc(F)cc3)[nH]c12" ?
5.00 to 6.00

What pIC50 value was documented for this molecule, "CC(=O)NCc1ccccc1-c1cc2c(-c3cccc(NC(=O)c4nccs4)c3C)ccc(C(N)=O)c2[nH]1" ?
6.00 to 7.00

###

Target: BTK, recombinant human catalytic domain (aa 393-659) (Homo sapiens (Human), UniProt Q06187)
Test: In vitro BTK kinase activity measured by time-resolved fluorescence resonance energy transfer (trFRET)
Format: biochemical
Conditions: read-out: Btk IC50
Measured Property: IC50

Worked examples, 3 molecules total:
[[record]]
compound = "CC(=O)N1CC=C(c2cc3c(-c4cccc(-n5cnc6ccccc6c5=O)c4C)ccc(C(N)=O)c3[nH]2)CC1"
reading = "< 100 nM"

[[record]]
compound = "NC(=O)c1ccc(N2CCC[C@@H](n3cnc4ccccc4c3=O)C2)c2cc(-c3ccc(F)cc3)[nH]c12"
reading = "100 to 1000 nM"

[[record]]
compound = "C=CC(=O)N[C@@H]1CC[C@@H](c2ccc(C(N)=O)c3[nH]ccc23)C1"
reading = "< 100 nM"


What IC50 value was documented for this molecule, "C=CC(=O)Nc1cc(C)cc(-c2ccc(C(N)=O)c3[nH]ccc23)c1" ?
100 to 1000 nM

What IC50 value was documented for this molecule, "CCC(=O)N1CC[C@@H](c2ccc(C(N)=O)c3[nH]c(C)cc23)C1" ?
100 to 1000 nM

What IC50 value was documented for this molecule, "C=CC(=O)Nc1cc(-c2ccc(C(N)=O)c3[nH]ccc23)ccc1Cl" ?
< 100 nM

###

Biological target: BTK, recombinant human catalytic domain (aa 393-659) (Homo sapiens (Human), UniProt Q06187)
Test: In vitro BTK kinase activity measured by time-resolved fluorescence resonance energy transfer (trFRET)
Type: biochemical
Settings: trFRET, 0.001 mM ATP, biotin-TYR1 peptide substrate; read-out: Btk IC50
Measured Property: IC50

Worked examples, 5 molecules total:
[[record]]
molecule = "Cc1c(NC(=O)c2nccs2)cccc1-c1ccc(C(N)=O)c2[nH]c(-c3ccccc3CNC(=O)CC#N)cc12"
reading = "0.1 to 1 µM"

[[record]]
molecule = "C=CC(=O)Nc1cccc(-c2ccc(C(N)=O)c3[nH]c(-c4ccc(C(=O)N5CCCC5)cc4)cc23)c1C"
reading = "< 0.1 µM"

[[record]]
molecule = "Cc1c(NC(=O)c2nccs2)cccc1-c1ccc(C(N)=O)c2[nH]c(-c3ccccc3CNC(=O)CCN(C)C)cc12"
reading = "0.1 to 1 µM"

[[record]]
molecule = "Cc1c(-c2ccc(C(N)=O)c3[nH]c(C4=CCN(S(C)(=O)=O)CC4)cc23)cccc1-n1cnc2ccc(F)cc2c1=O"
reading = "< 0.1 µM"

[[record]]
molecule = "Cc1ccc(-c2cc3c(-c4ccsc4)ccc(C(N)=O)c3[nH]2)cc1 [A.8.6]"
reading = "0.1 to 1 µM"


What IC50 value was documented for this molecule, "N#CCNC(=O)c1cccc(-c2ccc(C(N)=O)c3[nH]ccc23)c1" ?
1 to 10 µM

What IC50 value was documented for this molecule, "CC(=O)N1CC=C(c2cc3c(-c4cccc(NC(=O)c5ccc(C(C)(C)C#N)cc5)c4C)ccc(C(N)=O)c3[nH]2)CC1" ?
< 0.1 µM

What IC50 value was documented for this molecule, "Cc1c(NC(=O)/C=C/C(C)C)cccc1-c1ccc(C(N)=O)c2[nH]ccc12" ?
0.1 to 1 µM

What IC50 value was documented for this molecule, "Cc1c(-c2ccc(C(N)=O)c3[nH]c(-c4cccnc4)cc23)cccc1N1Cc2ccc(F)cc2C1=O" ?
< 0.1 µM

What IC50 value was documented for this molecule, "Cc1c(NC(=O)c2nccs2)cccc1-c1ccc(C(N)=O)c2[nH]cc(NC(=O)COc3ccc(F)cc3)c12" ?
1 to 10 µM
